- EXPERIMENT NOTES: Nrf2 qHTS screen for inhibitors; also: nearly all actives have a fitted effect of over 60% in size
- SETTINGS: A549 ARE-Fluc reporter, luciferase luminescence, 18-24 h; series mostly up to 46 µM
Screen size: about 360,000 compounds; about 7,500 (2.1%) were called active. Not shown: some 20% with an inconclusive outcome. Calls follow the shape of the dose curve; as a rule, active = well fitted inhibition curve with a large enough effect; inconclusive = small, poorly fitted or top-dose-only effect, or effect the other way; inactive = flat fitted curve, though single readings scatter. This is one part of a sample in which actives are shown more often than they occur.
Outcome codes: 1.0 (active), 0.0 (inactive)

> print(dat)
                            molecule.smiles  assigned.class
1  CN(C)c1nc(N)nc(Cn2nnc(-c3ccc(C(F)(F)F)cc3)n2)n1             0.0
2  CC(C)c1ccc(S(=O)(=O)Nc2ccc(O)c(Sc3nc4ccccc4s3)c2)cc1             0.0
3  CN(C)c1nc(N)nc(CSc2nnnn2-c2cccc3ccccc23)n1             1.0

###

- EXPERIMENT NOTES: Nrf2 qHTS screen for inhibitors; also: nearly all actives have a fitted effect of over 60% in size
- SETTINGS: A549 ARE-Fluc reporter, luciferase luminescence, 18-24 h; series mostly up to 46 µM
In all, about 360,000 compounds went through this assay and about 7,500 (2.1%) were called active. Inconclusive results (about 20%) are left out. Calls follow the shape of the dose curve; as a rule, active = well fitted inhibition curve with a large enough effect; inconclusive = small, poorly fitted or top-dose-only effect, or effect the other way; inactive = flat fitted curve, though single readings scatter. Many of the other results were omitted from the sample, so actives are more common in it than they were.
Outcome codes: active, inactive

> print(dat)
                                   compound  assigned.class
1  Cc1cc(-c2ccc(C)c(S(=O)(=O)Nc3ccc(S(N)(=O)=O)cc3)c2)on1        inactive
2  Cc1cc(-c2ccc(C)c(S(=O)(=O)NC(C)Cc3ccco3)c2)on1 (stereo not given)          active
3  O=[N+]([O-])c1cc(S(=O)(=O)Nc2cccc(Cl)c2)ccc1N=Nc1c(O)[nH]c2ccccc12          active
4  COc1ccc(C2NCCCC2c2ccccc2)cc1 (stereo not given)        inactive
5  COCCn1c(SCC(=O)Nc2ccccc2F)nc2c(c1=O)SCC2          active

###

- EXPERIMENT NOTES: Nrf2 qHTS screen for inhibitors; also: nearly all actives have a fitted effect of over 60% in size
- SETTINGS: A549 ARE-Fluc reporter, luciferase luminescence, 18-24 h; series mostly up to 46 µM
In all, about 360,000 compounds went through this assay and about 7,500 (2.1%) were called active. About 20% were inconclusive and are not listed. The call rests on the fitted dose curve; in most records, active means well fitted inhibition curve with a large enough effect; inconclusive means small, poorly fitted or top-dose-only effect, or effect the other way; inactive means flat fitted curve, though single readings scatter. The list comes from a sample in which actives are over-represented; it also holds close analogues and randomly drawn compounds.
Outcome codes: active, inactive

> print(dat)
                                    compound  assigned.class
 1  COc1ccc(NS(=O)(=O)c2ccc(NC(=O)c3ccc(N(C)S(C)(=O)=O)cc3)cc2)cc1          active
 2      COc1ccc(C)cc1Nc1nc2ccccc2c2nnc(C)n12        inactive
 3           O=C(NN=Cc1ccccc1O)NN=Cc1ccccc1O        inactive
 4  CCOc1ccc(NC(=O)COC(=O)C2CCC(=O)N2)c([N+](=O)[O-])c1 (stereo not given)        inactive
 5  O=C(C[C@@H]1C/C=C\CCC(=O)OC[C@@H]2CCCN2C1=O)NCCO        inactive
 6  COc1ccc(NC(=O)/C(N=Nc2cccc(S(=O)(=O)Nc3ccc(SC(F)F)cc3)c2)=C(\C)O)cc1        inactive
 7  COc1ccc(S(=O)(=O)N2CCc3ccccc32)cc1C(=O)Nc1cc(S(C)(=O)=O)ccc1Cl        inactive
 8  COc1cccc(/C=C/C(=O)OCC(=O)N2CCN(c3ccccc3)CC2)c1        inactive
 9  CCN(C[C@H]1N[C@@](Cc2ccccc2)(C(=O)OC)[C@H]2C(=O)N(Cc3ccccc3)C(=O)[C@@H]12)C(=O)c1ccc(C)cc1        inactive
10  CSc1ccc(CCNC(=O)c2cnn(-c3ccccc3)c2-n2cccc2)cc1        inactive
11  CN(CC(=O)NCC(c1ccccc1)N1CCCC1)S(=O)(=O)c1ccc(Cl)cc1 (stereo not given)        inactive
12  COc1ccc(NC(=O)c2cnc(NS(=O)(=O)c3ccccc3)nc2)cc1        inactive
13  O=S(=O)(c1ccc(Br)cc1)c1nc(-c2ccccc2)oc1NCc1cccnc1          active
14      COc1ccccc1CNC(=O)CCn1c(=O)sc2ccccc21        inactive
15  O=C(NCc1ccccc1CN1CCCC1)c1cccc(S(=O)(=O)Nc2ccc(F)cc2)c1        inactive

Data origin: PubChem BioAssay AID504444
